The measured values listed here are drawn from PubChem BioAssay AID651820.

Test: qHTS Assay for Inhibitors of Hepatitis C Virus (HCV)
Conditions: Huh7.5.1 HCVcc-Cre infection, luciferase reporter, 44 h; series mostly up to 41.8 µM
Out of some 340,000 compounds screened, about 12,000 (3.5%) were called active. Not shown: some 18% with an inconclusive outcome. Calls follow the shape of the dose curve; as a rule, active = well fitted inhibition curve with a large enough effect; inconclusive = small, poorly fitted or top-dose-only effect, or another doubt; inactive = no such curve, though single readings can be large or run the other way. What follows is part of a selection rich in actives, with near analogues and random picks from the rest.
Give one outcome, nothing more. List: t (active), f (inactive)

Recorded results for 2 compounds are shown here.
compound	class label
Cc1cn(COC/C=C/c2ccccc2)c(=O)[nH]c1=O	f
O=C(Nc1nc2ccc([N+](=O)[O-])cc2s1)c1ccncc1	f

Then this compound:
Enquiry: State the result this test recorded for CCC(C)C1(C2CCCC2)NC(=O)NC1=O (stereo not drawn) .
Return: f
